system: T47D; test: Antiproliferative activity against human T47D cells after 72 hrs by CCK8 assay; type: functional, cell-based
reported.property: IC50 (µM)
Use µM as the unit, but write only the number.

QUERY: State the recorded IC50 for this entry: Oc1ccc(-c2cc(-c3ccc(Cl)cc3)nc3c2oc2ccccc23)cc1
RESULT: 5.9

QUERY: State the recorded IC50 for this entry: Oc1ccccc1-c1cc(-c2cccc(Cl)c2)nc2c1oc1ccccc12
RESULT: 0.4

QUERY: State the recorded IC50 for this entry: Oc1cccc(-c2cc(-c3cccc(Cl)c3)nc3c2oc2ccccc23)c1
RESULT: 1.4

QUERY: State the recorded IC50 for this entry: Oc1cccc(-c2cc(-c3ccccc3Cl)c3oc4ccccc4c3n2)c1
RESULT: 0.1

QUERY: State the recorded IC50 for this entry: Oc1cccc(-c2cc(-c3ccc(Cl)cc3)nc3c2oc2ccccc23)c1
RESULT: 2.1

QUERY: State the recorded IC50 for this entry: Oc1ccc(-c2cc(-c3ccccc3Cl)nc3c2oc2ccccc23)cc1
RESULT: 6.1

QUERY: State the recorded IC50 for this entry: Oc1ccc(-c2cc(-c3cccc(Cl)c3)nc3c2oc2ccccc23)cc1
RESULT: 1.9

QUERY: State the recorded IC50 for this entry: Oc1ccc(-c2cc(-c3ccc(Cl)cc3)c3oc4ccccc4c3n2)cc1
RESULT: 11.6

QUERY: State the recorded IC50 for this entry: Oc1ccc(-c2cc(-c3ccccc3Cl)c3oc4ccccc4c3n2)cc1
RESULT: 0.8

QUERY: State the recorded IC50 for this entry: Oc1ccccc1-c1cc(-c2ccccc2Cl)nc2c1oc1ccccc12
RESULT: 3.9

---

tested on: HeLa; assay: Antiproliferative activity against human HeLa cells after 72 hrs by CCK8 assay; format: functional, cell-based
reported.property: pIC50
Units for pIC50: none; it is -log10 of a concentration expressed in mol/L.

QUERY: Request: pIC50, test system HeLa, entry Oc1ccc(-c2cc(-c3ccccc3Cl)nc3c2oc2ccccc23)cc1
RESULT: 5.41

QUERY: Request: pIC50, test system HeLa, entry COc1cc([C@@H]2c3cc4c(cc3[C@@H](O[C@@H]3O[C@@H]5CO[C@@H](C)O[C@H]5[C@H](O)[C@H]3O)[C@H]3COC(=O)[C@H]23)OCO4)cc(OC)c1O [ETOPOSIDE]
RESULT: 5.04

QUERY: Request: pIC50, test system HeLa, entry Oc1cccc(-c2cc(-c3cccc(Cl)c3)nc3c2oc2ccccc23)c1
RESULT: 5.37

QUERY: Request: pIC50, test system HeLa, entry Oc1cccc(-c2cc(-c3ccc(Cl)cc3)c3oc4ccccc4c3n2)c1
RESULT: 4.95

QUERY: Request: pIC50, test system HeLa, entry Oc1cccc(-c2cc(-c3ccccc3Cl)c3oc4ccccc4c3n2)c1
RESULT: 5.37

QUERY: Request: pIC50, test system HeLa, entry Oc1ccccc1-c1cc(-c2ccc(Cl)cc2)nc2c1oc1ccccc12
RESULT: 5.02

QUERY: Request: pIC50, test system HeLa, entry Oc1cccc(-c2cc(-c3ccccc3Cl)nc3c2oc2ccccc23)c1
RESULT: 5.36

---

I'd appreciate it if you could supply inhibition values for the items below.
target: DNA topoisomerase 2-alpha (Homo sapiens) (UniProt P11388); assay: Inhibition of human recombinant topoisomerase-2alpha-mediated relaxation of supercoiled pBR322 DNA at 100 uM after 30 mins by ethidium bromide staining based agarose gel electrophoresis method relative to control
Sequence (P11388 whole entry): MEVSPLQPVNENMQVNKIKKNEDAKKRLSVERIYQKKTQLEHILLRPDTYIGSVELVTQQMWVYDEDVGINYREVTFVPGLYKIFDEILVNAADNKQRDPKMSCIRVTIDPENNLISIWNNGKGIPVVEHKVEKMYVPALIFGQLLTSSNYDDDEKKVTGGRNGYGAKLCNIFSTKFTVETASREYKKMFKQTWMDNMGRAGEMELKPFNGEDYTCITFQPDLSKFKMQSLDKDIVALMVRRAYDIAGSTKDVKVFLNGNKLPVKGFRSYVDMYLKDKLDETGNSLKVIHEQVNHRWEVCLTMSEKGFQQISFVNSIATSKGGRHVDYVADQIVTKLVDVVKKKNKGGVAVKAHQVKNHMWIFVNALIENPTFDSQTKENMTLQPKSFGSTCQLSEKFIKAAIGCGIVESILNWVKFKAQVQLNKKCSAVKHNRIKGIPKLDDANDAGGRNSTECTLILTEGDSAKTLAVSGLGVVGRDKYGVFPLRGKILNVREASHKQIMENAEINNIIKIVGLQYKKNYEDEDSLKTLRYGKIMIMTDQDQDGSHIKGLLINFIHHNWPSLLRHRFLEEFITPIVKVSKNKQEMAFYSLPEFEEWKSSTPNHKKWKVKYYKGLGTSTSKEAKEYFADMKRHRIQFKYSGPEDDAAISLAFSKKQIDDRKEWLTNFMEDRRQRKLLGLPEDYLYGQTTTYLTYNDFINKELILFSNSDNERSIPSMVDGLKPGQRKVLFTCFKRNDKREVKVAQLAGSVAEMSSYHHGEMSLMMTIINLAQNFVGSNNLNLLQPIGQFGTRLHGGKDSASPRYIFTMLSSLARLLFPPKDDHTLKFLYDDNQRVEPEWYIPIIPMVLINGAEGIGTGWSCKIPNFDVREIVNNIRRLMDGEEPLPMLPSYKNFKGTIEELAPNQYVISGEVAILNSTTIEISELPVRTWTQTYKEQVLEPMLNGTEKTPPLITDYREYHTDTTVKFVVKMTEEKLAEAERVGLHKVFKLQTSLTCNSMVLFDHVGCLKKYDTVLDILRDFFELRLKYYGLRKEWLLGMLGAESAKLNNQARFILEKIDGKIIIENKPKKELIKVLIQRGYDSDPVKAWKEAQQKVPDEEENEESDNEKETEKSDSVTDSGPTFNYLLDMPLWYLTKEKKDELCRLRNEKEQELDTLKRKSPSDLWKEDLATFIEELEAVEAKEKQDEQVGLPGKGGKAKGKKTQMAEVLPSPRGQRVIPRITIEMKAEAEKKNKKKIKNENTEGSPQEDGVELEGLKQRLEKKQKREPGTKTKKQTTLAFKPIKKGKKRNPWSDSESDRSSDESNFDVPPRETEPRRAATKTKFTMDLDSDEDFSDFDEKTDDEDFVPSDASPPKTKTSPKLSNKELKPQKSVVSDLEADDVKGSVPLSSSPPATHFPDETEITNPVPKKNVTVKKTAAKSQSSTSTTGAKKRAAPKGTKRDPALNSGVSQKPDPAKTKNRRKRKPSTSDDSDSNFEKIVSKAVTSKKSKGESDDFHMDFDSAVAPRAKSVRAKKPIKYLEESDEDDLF

QUERY: State the recorded inhibition for this entry: Oc1cccc(-c2cc(-c3ccccc3Cl)c3oc4ccccc4c3n2)c1
RESULT: 60.2%

QUERY: State the recorded inhibition for this entry: Oc1ccc(-c2cc(-c3cccc(Cl)c3)c3oc4ccccc4c3n2)cc1
RESULT: 4.9%

QUERY: State the recorded inhibition for this entry: Oc1cccc(-c2cc(-c3ccccc3Cl)nc3c2oc2ccccc23)c1
RESULT: 82.9%

QUERY: State the recorded inhibition for this entry: Oc1cccc(-c2cc(-c3cccc(Cl)c3)nc3c2oc2ccccc23)c1
RESULT: 85.4%

QUERY: State the recorded inhibition for this entry: Oc1ccccc1-c1cc(-c2ccc(Cl)cc2)nc2c1oc1ccccc12
RESULT: 86.7%

QUERY: State the recorded inhibition for this entry: Oc1ccccc1-c1cc(-c2ccccc2Cl)nc2c1oc1ccccc12
RESULT: 85.6%

QUERY: State the recorded inhibition for this entry: Oc1ccc(-c2cc(-c3cccc(Cl)c3)nc3c2oc2ccccc23)cc1
RESULT: 95.4%

QUERY: State the recorded inhibition for this entry: Oc1ccc(-c2cc(-c3ccccc3Cl)c3oc4ccccc4c3n2)cc1
RESULT: 52.7%

QUERY: State the recorded inhibition for this entry: Oc1ccc(-c2cc(-c3ccc(Cl)cc3)nc3c2oc2ccccc23)cc1
RESULT: 100%

QUERY: State the recorded inhibition for this entry: Oc1ccc(-c2cc(-c3ccc(Cl)cc3)c3oc4ccccc4c3n2)cc1
RESULT: 65.6%

QUERY: State the recorded inhibition for this entry: Oc1cccc(-c2cc(-c3cccc(Cl)c3)c3oc4ccccc4c3n2)c1
RESULT: 35%

QUERY: State the recorded inhibition for this entry: Oc1ccccc1-c1cc(-c2cccc(Cl)c2)c2oc3ccccc3c2n1
RESULT: 4.7%

QUERY: State the recorded inhibition for this entry: Oc1cccc(-c2cc(-c3ccc(Cl)cc3)nc3c2oc2ccccc23)c1
RESULT: 87.9%

QUERY: State the recorded inhibition for this entry: Oc1ccccc1-c1cc(-c2ccccc2Cl)c2oc3ccccc3c2n1
RESULT: 58.2%

QUERY: State the recorded inhibition for this entry: Oc1ccccc1-c1cc(-c2cccc(Cl)c2)nc2c1oc1ccccc12
RESULT: 84%

QUERY: State the recorded inhibition for this entry: Oc1ccccc1-c1cc(-c2ccc(Cl)cc2)c2oc3ccccc3c2n1
RESULT: 55.8%

QUERY: State the recorded inhibition for this entry: Oc1ccc(-c2cc(-c3ccccc3Cl)nc3c2oc2ccccc23)cc1
RESULT: 92.8%
